Recorded IC50 for the following molecules
- system: human LPAR1 (Homo sapiens)
- Construct: expressed in transfected cells
- Sequence (Q92633 whole entry): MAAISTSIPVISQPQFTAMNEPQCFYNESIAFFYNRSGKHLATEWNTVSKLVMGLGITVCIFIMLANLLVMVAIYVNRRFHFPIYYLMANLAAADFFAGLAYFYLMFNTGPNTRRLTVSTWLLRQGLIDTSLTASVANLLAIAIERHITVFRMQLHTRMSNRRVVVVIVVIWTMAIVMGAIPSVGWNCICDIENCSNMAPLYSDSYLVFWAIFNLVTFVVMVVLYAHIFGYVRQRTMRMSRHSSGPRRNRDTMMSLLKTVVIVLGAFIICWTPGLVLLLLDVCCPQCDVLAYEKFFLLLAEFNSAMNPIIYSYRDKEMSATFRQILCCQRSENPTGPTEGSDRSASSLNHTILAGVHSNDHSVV
- test_method_notes: Test Example 1: antagonism against response of LPA-induced increase in intracellular Ca2+ concentration in RH7777 cells stably expressing human LPAR1
- Assay type: cell-based
- applied_conditions: RH7777 cells stably expressing human LPAR1; Fluo-4 fluorescence, FDSS6000; read-out: IC50 value (concentration producing 50% antagonism against response of LPA-induced increase in intracellular Ca2+ concentration) (converted)
quantity: IC50

INSERT INTO results (molecule, system, readout_value) VALUES
  ('CCOc1cc(C(C)N(CCOCc2ccccc2)C(=O)NC2(c3nn[nH]n3)CC2)cc(OCC)c1C(C)=O (stereo not shown) [Example 10-5]', 'human LPAR1 (Homo sapiens)', '2.85 nM'),
  ('CCOc1cc(C(C)N(CCCCc2ccccc2)C(=O)NC2(C(=O)O)CC(F)(F)C2)cc(OCC)c1C(=O)OC (stereo not shown) [Example 1-60]', 'human LPAR1 (Homo sapiens)', '5.46 nM'),
  ('CCOc1cc([C@@H](C)N(CCCC(F)(F)c2ccccc2)C(=O)NC2(C(=O)O)CCOCC2)cc(OCC)c1C1(O)CC1 [Example 4-74]', 'human LPAR1 (Homo sapiens)', '50.5 nM'),
  ('CCOc1cc(C(C)N(CCOCc2ccccc2)C(=O)NC2(C(=O)O)CC(OC)C2)c(Cl)c(OCC)c1C(C)=O (stereo not shown) [Example 5-205]', 'human LPAR1 (Homo sapiens)', '2.74 nM');
